From: paper PMC8466373

test: ABTS assay
Assay type: biochemical
measurement_parameters: 50 μM, methanolic solutions, 7 min of reaction time
This section presents compounds with their documented Inhibition of ABTS•+ radicals (%I) values.

>  <compound>
O=C(O)c1cc(O)ccc1O [2,5-DHB, 2,5-dihydroxybenzoic acid]

>  <uom>
%

>  <Inhibition of ABTS•+ radicals (%I)>
80.11

$$$$
>  <compound>
O=C(O)c1cccc(O)c1O [2,3-DHB, 2,3-Dihydroxybenzoic acid]

>  <uom>
%

>  <Inhibition of ABTS•+ radicals (%I)>
86.40

$$$$
>  <compound>
O=C(O)c1cc(O)cc(O)c1 [3,5-DHB, 3,5-dihydroxybenzoic acid]

>  <uom>
%

>  <Inhibition of ABTS•+ radicals (%I)>
60.39

$$$$
>  <compound>
O=C(O)c1c(O)cccc1O [2,6-DHB, 2,6-dihydroxybenzoic acid]

>  <uom>
%

>  <Inhibition of ABTS•+ radicals (%I)>
8.12

$$$$
>  <compound>
O=C(O)c1cc(O)c(O)c(O)c1 [3,4,5-THB, 3,4,5-trihydroxybenzoic acid]

>  <uom>
%

>  <Inhibition of ABTS•+ radicals (%I)>
79.50

$$$$
>  <compound>
O=C(O)c1ccc(O)c(O)c1 [3,4-DHB, 3,4-dihydroxybenzoic acid]

>  <uom>
%

>  <Inhibition of ABTS•+ radicals (%I)>
74.51

$$$$
>  <compound>
O=C(O)c1ccc(O)cc1O [2,4-DHB, 2,4-Dihydroxybenzoic acid]

>  <uom>
%

>  <Inhibition of ABTS•+ radicals (%I)>
16.17

$$$$
